Answer each item with its documented pKi.
Form: value (number only, do not type unit).

[Q] API: value(readout=pKi, system=D(3) dopamine receptor (Homo sapiens) (UniProt P35462)) for record O=C(CCCN1CCC(C(O)c2ccc(Cl)cc2)CC1)c1ccc(F)cc1 (stereo not drawn)
[A] 7.11

[Q] Quick check: pKi on D(3) dopamine receptor (Homo sapiens) (UniProt P35462), item CN(CCCC(=O)c1ccc(F)cc1)CCCC(O)c1ccc(Cl)cc1 (stereo not drawn) ?
[A] 6.79

[Q] I'm curious: which pKi was measured for O=C(CCCN1CCC(CO)(c2ccc(Cl)cc2)CC1)c1ccc(F)cc1 tested on D(3) dopamine receptor (Homo sapiens) (UniProt P35462)?
[A] 6.96
